Assign IC50 to each entry below.
# TESTED TARGET: Aromatase (Homo sapiens)
# Sequence (P11511 whole entry): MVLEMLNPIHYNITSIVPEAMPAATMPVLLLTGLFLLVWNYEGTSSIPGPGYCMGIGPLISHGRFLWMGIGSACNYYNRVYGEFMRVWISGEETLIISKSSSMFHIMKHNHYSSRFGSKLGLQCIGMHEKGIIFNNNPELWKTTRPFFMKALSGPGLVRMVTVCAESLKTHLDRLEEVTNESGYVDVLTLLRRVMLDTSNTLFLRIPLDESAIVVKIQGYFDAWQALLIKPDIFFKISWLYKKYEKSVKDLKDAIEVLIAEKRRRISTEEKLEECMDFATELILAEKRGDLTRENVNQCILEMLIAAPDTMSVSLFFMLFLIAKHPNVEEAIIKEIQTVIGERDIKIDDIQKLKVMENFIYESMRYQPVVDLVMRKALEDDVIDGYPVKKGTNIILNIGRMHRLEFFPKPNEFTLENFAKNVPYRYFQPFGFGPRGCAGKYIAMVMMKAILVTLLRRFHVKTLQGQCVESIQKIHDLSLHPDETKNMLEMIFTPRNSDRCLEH

QUERY: Quick one: IC50 for CCC[C@H]1C[C@H]2OC(=O)c3c(cc(OC)c(O)c3O)[C@H]2O1 ?
RESULT: > 16.9 µM

QUERY: Quick one: IC50 for CCC[C@@H](O)C[C@H]1OC(=O)c2c(cc(OC)c(OC)c2O)[C@H]1O ?
RESULT: > 15.3 µM

QUERY: Quick one: IC50 for CCC[C@H]1C[C@H]2OC(=O)c3c(cc(OC)c(OC)c3O)[C@H]2O1 ?
RESULT: > 16.2 µM

QUERY: Quick one: IC50 for CCCC(=O)CC[C@H]1OC(=O)c2c1cc(OC)c(OC)c2O [COLLETOTRIALIDE] ?
RESULT: > 16.2 µM

---

# Test system: HepG2
# PROTOCOL: Cytotoxicity against human HepG2 cells by MTT assay
# Format: functional, cell-based
ENDPOINT NAME: IC50 (µM)
# number only, unit µM dropped from output

QUERY: Quick one: IC50 for CCC[C@H]1C[C@H]2OC(=O)c3c(cc(OC)c(O)c3O)[C@H]2O1 ?
RESULT: 23.7

QUERY: Quick one: IC50 for COc1cccc2c1C(=O)c1c(O)c3c(c(O)c1C2=O)C[C@@](O)(C(=O)CO)C[C@@H]3O[C@H]1C[C@H](N)[C@H](O)[C@H](C)O1 [DOXORUBICIN] ?
RESULT: 0.29

QUERY: Quick one: IC50 for COc1cc([C@@H]2c3cc4c(cc3[C@@H](O[C@@H]3O[C@@H]5CO[C@@H](C)O[C@H]5[C@H](O)[C@H]3O)[C@H]3COC(=O)[C@H]23)OCO4)cc(OC)c1O [ETOPOSIDE] ?
RESULT: 15.8

QUERY: Quick one: IC50 for CCC[C@H](O)C[C@@H]1Cc2cc(OC)c(OC)c(O)c2C(=O)O1 [FUSARENTIN 6,7-DIMETHYLETHER] ?
RESULT: 121
